- study target: 5α-Reductase of Rat Liver Microsomes (Rattus norvegicus, UniProt P24008)
- measurement notes: biochemical
- condition: read-out: % Inhibition of [^3 H]4-MA binding, Table 2, 40 μM
property label: inhibition at 40 µM (%)
The reply should be a number in %, with the unit left off.

smiles: CCCCCCCC/C=C\CCCCCCCCCCC(=O)O
unit symbol: %
inhibition at 40 µM: 25
//
smiles: CCCCC/C=C\C/C=C\CCCCCCCCC(=O)O
unit symbol: %
inhibition at 40 µM: 37
//
smiles: CC/C=C\C/C=C\C/C=C\CCCCCCCC(=O)O
unit symbol: %
inhibition at 40 µM: 27

Prompt line: Look up inhibition at 40 µM for this compound: CCCCCC/C=C\CCCCCCCC(=O)O
Response line: 16

Prompt line: And what about the compound CCCCC/C=C\C/C=C\CCCCCCCCCCCC(=O)O ?
Response line: 21

----------
- Tested on: hamster flank organ
- measurement notes: Flank organ, castrated immature male hamsters, topical treatment
- Format: in vivo, Syrian golden hamster
- condition: Table 5, T 0.5 μg + fatty acid 1 mg, 21 days; T alone 49.6 ± 8.3
property label: Pigmented macule Right (+T)

Guide cases for Pigmented macule Right (+T), answers given:
smiles: CCCCCCCC/C=C\CCCCCCCCCCCCCC(=O)O
property label: Pigmented macule Right (+T)
val: 39.9 ± 5.4 mm^2

smiles: CCCCCCCC/C=C/CCCCCCCC(=O)O
property label: Pigmented macule Right (+T)
val: 47.0 ± 5.9 mm^2

smiles: CC/C=C\C/C=C\C/C=C\CCCCCCCC(=O)O
property label: Pigmented macule Right (+T)
val: 27.6 ± 8.2 mm^2

smiles: C=CCCCCCCCCC(=O)O
property label: Pigmented macule Right (+T)
val: 41.7 ± 10.7 mm^2

Prompt line: What Pigmented macule Right (+T) value was documented for this compound, CCCCC/C=C\C/C=C\C/C=C\C/C=C\CCCC(=O)O ?
Response line: 35.7 ± 7.9 mm^2

----------
Known IC50 of a selection of molecules
- study target: 5α-Reductase of Rat Liver Microsomes (Rattus norvegicus, UniProt P24008)
- Sequence (P24008 1-259): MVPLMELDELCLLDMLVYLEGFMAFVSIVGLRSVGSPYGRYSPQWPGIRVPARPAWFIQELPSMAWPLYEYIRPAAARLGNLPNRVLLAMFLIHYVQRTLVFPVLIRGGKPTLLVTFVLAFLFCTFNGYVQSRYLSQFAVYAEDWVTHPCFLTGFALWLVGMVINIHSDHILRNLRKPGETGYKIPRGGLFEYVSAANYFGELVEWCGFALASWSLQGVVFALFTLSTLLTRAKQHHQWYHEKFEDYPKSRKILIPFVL
- measurement notes: biochemical

molecule: CCCCC/C=C\C/C=C\C/C=C\CCCCCOC(C)=O [γ-Linolenyl Acetate, γ-linolenyl acetate]
IC50: > 200 µM
--
molecule: CCCCC/C=C\C/C=C\C/C=C\CCCCC(=O)OC [methyl γ-linolenate]
IC50: > 200 µM

# input for lookup
Prompt line: # query: IC50 of entry CCCCC/C=C\C/C=C\CCCCCCCCCC(=O)Cl [11,14-cis-Eicosaidienoyl Chloride, 11,14-eicosadienoyl chloride]
Response line: > 200 µM

----------
- study target: 5α-Reductase of Rat Liver Microsomes (Rattus norvegicus, UniProt P24008)
- measurement notes: biochemical
- condition: read-out: % Inhibition of [^3 H]4-MA binding, Table 2, 40 μM
Listing of entries alongside the reported inhibition at 40 µM.

Field: example entries. Status: answers known.
compound: CCCCC/C=C\C/C=C\CCCCCCCCCC(=O)OC [11,14-cis-Eicosadienoate, methyl 11,14 eicosadienoate]
inhibition at 40 µM: < 10%

compound: CC/C=C\C/C=C\C/C=C\CCCCCCCCCC(=O)O [11,14,17-cis-Eicosatrienoic Acid, 11,14,17-eicosatrienoic acid]
inhibition at 40 µM: 78%

compound: CCCCC/C=C\C/C=C\C/C=C\CCCCC(=O)OCC(COC(=O)CCCC/C=C\C/C=C\C/C=C\CCCCC)OC(=O)CCCC/C=C\C/C=C\C/C=C\CCCCC
inhibition at 40 µM: < 10%

compound: CCCCCC/C=C\CCCCCCCCC(=O)O [10-cis-Heptadecenoic Acid, 10-heptadecenoic acid]
inhibition at 40 µM: 83%

compound: CCCCCCCCCCC/C=C\CCCCC(=O)O
inhibition at 40 µM: < 10%

Prompt line: GET /values?readout=inhibition at 40 µM&system=5α-Reductase of Rat Liver Microsomes (Rattus norvegicus, UniProt P24008)&item= CCCCC/C=C\C/C=C\CCCCCCCCCC(=O)Cl [11,14-cis-Eicosaidienoyl Chloride, 11,14-eicosadienoyl chloride]
Response line: < 10%

Prompt line: Item: CCCCC/C=C\CCCCCCCCCCC(=O)O
Response line: < 10%

Prompt line: Then CCCCC/C=C\C/C=C\C/C=C\C/C=C\CCCCCC(=O)O ?
Response line: 41%

Prompt line: Same question for CC/C=C\C/C=C\C/C=C\C/C=C\CCCCC(=O)O please.
Response line: 40%

Prompt line: Cool, now CC/C=C\C/C=C\C/C=C\CCCCCCCCCCCC(=O)O
Response line: < 10%

Prompt line: Check CCCCCC/C=C/CCCCCCCCC(=O)O [10-trans-Heptadecenoic Acid, 10-trans-heptadecenoicacid] too.
Response line: < 10%

----------
- study target: 5α-Reductase of Rat Liver Microsomes (Rattus norvegicus, UniProt P24008)
- measurement notes: biochemical
- condition: read-out: % Inhibition of [^3 H]4-MA binding, Table 2, 200 μM
property label: inhibition at 200 µM

Solved cases (2 shown):
compound: CCCCC/C=C/C/C=C/CCCCCCCCCC(=O)O [11,14-trans-Eicosadienoic Acid, trans 11,14-eicosadienoic acid]
study target: 5α-Reductase of Rat Liver Microsomes (Rattus norvegicus, UniProt P24008)
property label: inhibition at 200 µM
val: < 10%
//
compound: CCCCCCCCCCCCCCCCCCCC(=O)Cl [Arachidoyl Chloride, archidoyl chloride]
study target: 5α-Reductase of Rat Liver Microsomes (Rattus norvegicus, UniProt P24008)
property label: inhibition at 200 µM
val: < 10%

Prompt line: Using the record for CCCCCCCCCCCCCC/C=C\CCCC(=O)O [5-Eicosenoic Acid, 5-eicosenoic acid] , report its inhibition at 200 µM.
Response line: < 10%

----------
A collection of molecules and their measured pIC50
- study target: 5α-Reductase of Rat Liver Microsomes (Rattus norvegicus, UniProt P24008)
- measurement notes: biochemical
Just so you know, pIC50 here is -log10 of the concentration in molar units; reply with that number alone.

Consider the reported pIC50 for these molecules:
molecule: CCCCC/C=C\C/C=C\CCCCCCCC(=O)O [Linoleic acid]
pIC50: 3.93

molecule: CC/C=C\C/C=C\C/C=C\CCCCCCCCCCCC(=O)O [13,16,19-Docosatrienoic Acid, 13,16,19-docosatrienoic acid]
pIC50: 3.79

Note: attention shifts to another entry.
Prompt line: Requested field: pIC50. Item: CCCCCC/C=C\CCCCCCCCCC(=O)O [11-Octadecenoic Acid, 11-octadecenoic acid]
Response line: 4.59

Origin of the recorded values: patent US5605929A
